molecular target: FoccCSP-Gln87Ala (Frankliniella occidentalis, UniProt G4Y3X1, Q87A); experiment: Fluorescence (1-NPN) binding and competitive binding assay, FoccCSP mutant
Sequence (G4Y3X1 entry or part of it Q87A): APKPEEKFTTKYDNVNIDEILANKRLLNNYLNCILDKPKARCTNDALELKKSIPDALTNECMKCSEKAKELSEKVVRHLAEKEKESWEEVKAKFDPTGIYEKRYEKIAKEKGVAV
observable: Kd (µM)
Numbers only; they are read as µM.

Input line: Endpoint output: Kd of c1ccc(Nc2cccc3ccccc23)cc1 [1-NPN, N-phenyl-1-naphthylamine, reference compound] . Value?
Output line: 20.3

----------
target: recombinant wild-type FintCSP1 (Frankliniella intonsa); assay: Fluorescence (1-NPN) binding and competitive binding assay, wild-type FintCSP1
Sequence (A0A891LVF4 entry or part of it): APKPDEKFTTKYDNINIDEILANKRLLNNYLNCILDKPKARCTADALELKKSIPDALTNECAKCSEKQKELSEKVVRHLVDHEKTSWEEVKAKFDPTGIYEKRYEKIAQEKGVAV
observable: IC50

Input line: Write down the reported IC50 of CCC/C=C/C=O [trans-2-hexenal] , test system: recombinant wild-type FintCSP1 (Frankliniella intonsa).
Output line: > 100 µM

----------
molecular target: FintCSP1-Glu67Ala (Frankliniella intonsa, UniProt A0A891LVF4, E67A); experiment: Fluorescence (1-NPN) binding and competitive binding assay, FintCSP1 mutant
Sequence (A0A891LVF4 entry or part of it E67A): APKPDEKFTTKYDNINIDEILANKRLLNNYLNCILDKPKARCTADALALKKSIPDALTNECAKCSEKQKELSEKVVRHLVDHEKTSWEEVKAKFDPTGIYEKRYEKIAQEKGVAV
observable: pKd
Answer as the number alone; pKd is minus log10 of concentration in mol/L.

Input line: If you can, please state the reported pKd value of c1ccc(Nc2cccc3ccccc23)cc1 [1-NPN, N-phenyl-1-naphthylamine, reference compound] .
Output line: 5.35

----------
molecular target: FintCSP1-Ser84Ala (Frankliniella intonsa, UniProt A0A891LVF4, S84A); test: Fluorescence (1-NPN) binding and competitive binding assay, FintCSP1 mutant
Sequence (A0A891LVF4 entry or part of it S84A): as the sequence (A0A891LVF4 entry or part of it) above, with S65A counted along it
observable: Ki (µM)
Supply the numeric figure in µM, leaving out any unit text.

Input line: // Ki lookup, key: CC/C=C\CC=O [cis-3-hexenal]
Output line: 29.7

----------
target: FoccCSP-Thr29Ala (Frankliniella occidentalis, UniProt G4Y3X1, T29A); assay: Fluorescence (1-NPN) binding and competitive binding assay, FoccCSP mutant
Sequence (G4Y3X1 entry or part of it T29A): as the sequence (G4Y3X1 entry or part of it Q87A) above, with T10A, A68Q counted along it
observable: Kd (µM)
Express the result in µM but write the number alone.

Input line: Request body: readout Kd, system FoccCSP-Thr29Ala (Frankliniella occidentalis, UniProt G4Y3X1, T29A), query c1ccc(Nc2cccc3ccccc23)cc1 [1-NPN, N-phenyl-1-naphthylamine, reference compound] . Return the value.
Output line: 15.5

----------
biological target: FoccCSP-Asp64Ala (Frankliniella occidentalis, UniProt G4Y3X1, D64A); test: Fluorescence (1-NPN) binding and competitive binding assay, FoccCSP mutant
Sequence (G4Y3X1 entry or part of it D64A): as the sequence (A0A891LVF4 entry or part of it) above, with D5E, I15V, A44N, D45A, A62M, V80A, D81E, H82K, T85E, Q109K counted along it
observable: IC50
# answer = value followed by unit

Input line: Field request: IC50 | item: CC/C=C\CC=O [cis-3-hexenal]
Output line: 65.9 µM

----------
Target: FintCSP1-Val132Ala (Frankliniella intonsa, UniProt A0A891LVF4, V132A)
Sequence (A0A891LVF4 entry or part of it V132A): as the sequence (A0A891LVF4 entry or part of it E67A) above, with A48E, V113A counted along it
Assay: Fluorescence (1-NPN) binding and competitive binding assay, FintCSP1 mutant (negative control residue)
Description: The binding affinity of FintCSP1 and FoccCSP to the fluorescent probe N-phenyl-1-naphthylamine (1-NPN) was tested using a Spectramax M2 fluorescence spectrometer (Molecular Devices, USA) as reported previously. […] The 1-NPN/FintCSP1 or 1-NPN/FoccCSP mixture was excited at 280 nm, and the emission spectra were recorded at 415 nm. The binding constants (Kd) of FintCSP1 or FoccCSP to 1-NPN were calculated by Scatchard analysis using Prism 5 software (GraphPad, La Jolla, CA, USA). […]
observable: pKd
Please note pKd is a logarithmic value: minus log10 of concentration in mol/L. Answer with that number alone.

Input line: I have this compound here, c1ccc(Nc2cccc3ccccc23)cc1 [1-NPN, N-phenyl-1-naphthylamine, reference compound] , and I need its recorded pKd.
Output line: 5.17

----------
molecular target: recombinant wild-type FintCSP1 (Frankliniella intonsa); experiment: Fluorescence (1-NPN) binding and competitive binding assay, wild-type FintCSP1
observable: Ki

Input line: Recorded Ki of CCC/C=C/C=O [trans-2-hexenal] , please.
Output line: > 100 µM

----------
target: FoccCSP-Thr28Ala (Frankliniella occidentalis, UniProt G4Y3X1, T28A); assay: Fluorescence (1-NPN) binding and competitive binding assay, FoccCSP mutant
observable: Kd (µM)
Could you give me the number in µM? Just the number is fine.

Input line: Which Kd value belongs to c1ccc(Nc2cccc3ccccc23)cc1 [1-NPN, N-phenyl-1-naphthylamine, reference compound] ?
Output line: 19.9

----------
target: FintCSP1-Ser84Ala (Frankliniella intonsa, UniProt A0A891LVF4, S84A); assay: Fluorescence (1-NPN) binding and competitive binding assay, FintCSP1 mutant
observable: IC50

Input line: What IC50 value was documented for this compound, CC/C=C\CC=O [cis-3-hexenal] ?
Output line: 41.3 µM

----------
biological target: recombinant wild-type FoccCSP (Frankliniella occidentalis, UniProt G4Y3X1); experiment: Fluorescence (1-NPN) binding and competitive binding assay, wild-type FoccCSP; settings: wild-type FoccCSP; displacement of 1-NPN; both 2 μM, 50 mM Tris-HCl pH 7.4
Sequence (G4Y3X1 entry or part of it): as the sequence (A0A891LVF4 entry or part of it) above, with D5E, I15V, A44N, A62M, V80A, D81E, H82K, T85E, Q109K counted along it
observable: pIC50
Note on pIC50: it is the negative log10 of concentration, concentration in mol/L.

Input line: Reported pIC50, molecule CC/C=C\CC=O [cis-3-hexenal] : ____
Output line: 4.54

----------
molecular target: FoccCSP-Lys26Ala (Frankliniella occidentalis, UniProt G4Y3X1, K26A); experiment: Fluorescence (1-NPN) binding and competitive binding assay, FoccCSP mutant
Sequence (G4Y3X1 entry or part of it K26A): as the sequence (A0A891LVF4 entry or part of it) above, with D5E, K7A, I15V, A44N, A62M, V80A, D81E, H82K, T85E, Q109K counted along it
observable: Ki (µM)
# unit: µM | format: bare number

Input line: # value lookup — system FoccCSP-Lys26Ala (Frankliniella occidentalis, UniProt G4Y3X1, K26A), readout Ki, item CC/C=C\CC=O [cis-3-hexenal]
Output line: 32.6

----------
Molecular target: FoccCSP-Lys26Ala (Frankliniella occidentalis, UniProt G4Y3X1, K26A)
Test: Fluorescence (1-NPN) binding and competitive binding assay, FoccCSP mutant
Procedure: The binding affinity of FintCSP1 and FoccCSP to the fluorescent probe N-phenyl-1-naphthylamine (1-NPN) was tested using a Spectramax M2 fluorescence spectrometer (Molecular Devices, USA) as reported previously. […] The 1-NPN/FintCSP1 or 1-NPN/FoccCSP mixture was excited at 280 nm, and the emission spectra were recorded at 415 nm. The binding constants (Kd) of FintCSP1 or FoccCSP to 1-NPN were calculated by Scatchard analysis using Prism 5 software (GraphPad, La Jolla, CA, USA). […]
observable: pIC50
A value of pIC50 is the negative decimal logarithm of a concentration given in moles per litre.

Input line: Request the reported pIC50 associated with CC/C=C\CC=O [cis-3-hexenal]
Output line: 4.44

----------
target: recombinant wild-type FoccCSP (Frankliniella occidentalis); test: Fluorescence (1-NPN) binding and competitive binding assay, wild-type FoccCSP
observable: pKd
In textbook form, pKd equals minus log to base ten of the concentration in mol/L.

Input line: Which measured pKd value corresponds to c1ccc(Nc2cccc3ccccc23)cc1 [1-NPN, N-phenyl-1-naphthylamine, reference compound] ?
Output line: 5.20

----------
biological target: FintCSP1-Phe27Ala (Frankliniella intonsa, UniProt A0A891LVF4, F27A); experiment: Fluorescence (1-NPN) binding and competitive binding assay, FintCSP1 mutant
Sequence (A0A891LVF4 entry or part of it F27A): as the sequence (A0A891LVF4 entry or part of it) above, with F8A counted along it
observable: pKi
The scale used: pKi is minus the common logarithm of the concentration in molar units.

Input line: Return reported pKi; argument: CC/C=C\CC=O [cis-3-hexenal]
Output line: 4.39

----------
target: FoccCSP-Val132Ala (Frankliniella occidentalis, UniProt G4Y3X1, V132A); assay: Fluorescence (1-NPN) binding and competitive binding assay, FoccCSP mutant (negative control residue)
Sequence (G4Y3X1 entry or part of it V132A): as the sequence (G4Y3X1 entry or part of it Q87A) above, with A68Q, V113A counted along it
observable: pKi
Keep it numeric: pKi is minus log10 of the concentration in mol/L.

Input line: Enter reported pKi observed with FoccCSP-Val132Ala (Frankliniella occidentalis, UniProt G4Y3X1, V132A) for CC/C=C\CC=O [cis-3-hexenal]
Output line: 4.63

----------
biological target: FintCSP1-Phe27Ala (Frankliniella intonsa, UniProt A0A891LVF4, F27A); assay: Fluorescence (1-NPN) binding and competitive binding assay, FintCSP1 mutant
observable: IC50 (µM)
Unit µM implied. Number only.

Input line: Request body: readout IC50, system FintCSP1-Phe27Ala (Frankliniella intonsa, UniProt A0A891LVF4, F27A), query CC/C=C\CC=O [cis-3-hexenal] . Return the value.
Output line: 53.5

----------
Target: FoccCSP-Glu67Ala (Frankliniella occidentalis, UniProt G4Y3X1, E67A)
Sequence (G4Y3X1 entry or part of it E67A): as the sequence (G4Y3X1 entry or part of it Q87A) above, with E48A, A68Q counted along it
Experiment: Fluorescence (1-NPN) binding and competitive binding assay, FoccCSP mutant
Experimental: The binding affinity of FintCSP1 and FoccCSP to the fluorescent probe N-phenyl-1-naphthylamine (1-NPN) was tested using a Spectramax M2 fluorescence spectrometer (Molecular Devices, USA) as reported previously. […] The 1-NPN/FintCSP1 or 1-NPN/FoccCSP mixture was excited at 280 nm, and the emission spectra were recorded at 415 nm. The binding constants (Kd) of FintCSP1 or FoccCSP to 1-NPN were calculated by Scatchard analysis using Prism 5 software (GraphPad, La Jolla, CA, USA). […]
observable: pIC50
Keep it numeric: pIC50 is minus log10 of the concentration in mol/L.

Input line: # get_value(readout='pIC50', item= CC/C=C\CC=O [cis-3-hexenal] )
Output line: 4.03

----------
target: FoccCSP-Gln87Ala (Frankliniella occidentalis, UniProt G4Y3X1, Q87A); assay: Fluorescence (1-NPN) binding and competitive binding assay, FoccCSP mutant
observable: Ki (µM)
Write it as a number; the unit µM goes unstated.

Input line: Param item = CC/C=C\CC=O [cis-3-hexenal] ; retrieve measured Ki.
Output line: 43.7
